Kindly supply the reported melting point values for the records listed here.

Measured melting point, O=S(=O)(NCCc1ccc(C(O)CCCO)cc1)c1ccccc1Cl (stereo not given) : 101 °C

So, CCc1cc(OCC(=O)O)c(C)cc1SCc1sc(-c2ccc(C(F)(F)F)cc2)nc1C ? Its melting point was 169 to 171 °C

Summary for this compound, O=C(NCc1ccc(F)cc1)c1nc2n(c(=O)c1OCc1ccccc1)CCN2Cc1ccccc1 : melting point is 125 °C

Measured melting point, COC(=O)CCCc1ccc(CN2CCN(c3ccncc3)CC2)cc1 : 126 to 127 °C

Field melting point (entry COc1cc(OC)nc(NC(=O)NS(=O)(=O)c2ccccc2C2CO2)n1 (stereo not given) ) reads 177 to 179 °C

The compound listed as Cc1c2c(cn1CC(N)=O)CN=C(c1ccccc1Cl)c1cc(Cl)ccc1-2 has a reported melting point of 142 to 145 °C

The compound listed as CCCc1c(OCCCCCOc2cc(OCCCC(=O)O)ccc2CCC(=O)O)ccc2c1OCCC2=O shows melting point equal to 163 to 164 °C

The recorded melting point for entry CCN(CC)c1ccc(C2(c3ccc(N(C)C)cc3N(C)C)OC(=O)c3c(Cl)c(Cl)c(Cl)c(Cl)c32)cc1 (stereo not given) equals 206 to 208 °C

Sure, the documented melting point for CC1(C)N(C=O)CC(=O)N1CC(N)=O is 211 to 213 °C

Lab book: melting point of CS(=O)(=O)c1nccc(-c2c(-c3ccc(F)cc3)nc3sccn23)n1 noted as 197 to 198 °C

melting point reported for this compound O=C(NCCc1ccc([N+](=O)[O-])cc1)C(F)(F)F : 96 to 97 °C

For this compound ( COC(=O)CCCC(=O)c1ccco1 ), measured melting point is 42.5 °C

Lab book: melting point of O=[N+]([O-])c1cnn2c(-c3ccco3)ccnc12 noted as 235 to 237 °C

Short answer for COc1ccc(NC(C)=O)c(O)c1C(C)=O : melting point was 160 to 162 °C

// melting point lookup, compound = Cn1c(-c2ccc(-c3ccccn3)cc2)cnc1[C@H](Cc1ccccn1)N(C=O)c1cc2cc(Cl)ccc2o1 , result: 175 to 180 °C

The reported value for O=C(O)c1cnc(NCc2cccs2)nc1-c1ccccc1 in terms of melting point is 212 to 213 °C

Form field melting point, entry Cc1cc(-c2ccc(-c3ccco3)cc2)n(-c2ccc(S(N)(=O)=O)cc2)c1 : 153 to 155 °C

According to the records, this compound CC(C)(C)OC(=O)N=C(NCCCCNC(=O)[C@H](Cc1ccccc1)NC(=O)CCCC(=O)O)NC(=O)OC(C)(C)C displays melting point of 86 °C

compound Nc1cncc(C(O)c2ccccc2)c1 (stereo not given) , melting point observed: 92 to 94 °C

Notebook: CCc1noc(C)c1-c1[nH]c2ccccc2c1CN(C)C , melting point read as 88 to 90 °C
